# Test system: KSHV lytic replication
# Measurement description: in vitro
# Condition info: human, Selective index (CC50/IC50)
Hi there, I'd appreciate the recorded selectivity ratio for every entry that follows.

Inquiry: Data request, read-out selectivity ratio, for Nc1ccn(C[C@@H](CO)OCP(=O)(O)O)c(=O)n1 [Cidofovir, reference compound]
Reply text: > 123

Inquiry: Data request, read-out selectivity ratio, for CC(C)C(=O)c1c(O)cc(O)c2c1OC1(C)CCC(C(C)(C)O)C2C1O (stereo not drawn)
Reply text: > 2.46

Inquiry: Data request, read-out selectivity ratio, for CC(C)=CCCC1(C)Oc2c(c(O)cc(O)c2C(=O)C(C)C)CC1O (single isomer, unassigned; (+)) [Compound 2a, (+)-japonicol F]
Reply text: 4.5

====

# Measurement description: in vitro
# Condition info: human, CC50, 50% cytotoxic concentration, iSLK.219 cells, 48 h, with Dox and NaB
Hi there, I'd appreciate the recorded CC50 for every entry that follows.
Your answer should be a plain number; it is taken to be in µM.

Inquiry: Data request, read-out CC50, for CC(C)=CCCC(C)(O)C1Cc2c(O)cc(O)c(C(=O)c3ccccc3)c2O1 (single isomer, unassigned; (+)) [Compound 4a, (+)-japonicol H]
Reply text: 126

Inquiry: Data request, read-out CC50, for C=C(C)C1CCC2(C)Oc3c(c(O)cc(O)c3C(=O)C(C)C)CC12 (single isomer, unassigned; (+)) [Compound 1a, (+)-japonicol E]
Reply text: 195

Inquiry: Data request, read-out CC50, for CC(C)C(=O)c1c(O)cc(O)c2c1OC(C)(C)C1CCC(C)(O)C1C2 (centres unmarked)
Reply text: 221

Inquiry: Data request, read-out CC50, for CC(C)=CCCC(C)(O)C1Cc2c(O)cc(O)c(C(=O)C(C)C)c2O1 (single isomer, unassigned; (+)) [Compound 3a, (+)-japonicol G]
Reply text: 79.5

====

# Tested on: KSHV lytic replication
# Condition info: human
Observation type: Selective index (CC50/IC50)

Inquiry: Data request, read-out Selective index (CC50/IC50), for CC(C)C(=O)c1c(O)cc(O)c2c1OC1(C)CCC(C(C)(C)O)C2C1O (stereo not shown)
Reply text: >3.55

Inquiry: Data request, read-out Selective index (CC50/IC50), for CC(C)C(=O)c1c(O)cc(O)c(CC2C(C(C)(C)O)CCC2(C)O)c1O (stereo not shown) [Compound 8b]
Reply text: >1.89

Inquiry: Data request, read-out Selective index (CC50/IC50), for CC(C)=CCCC(C)(O)C1Cc2c(O)cc(O)c(C(=O)c3ccccc3)c2O1 (single isomer, unassigned; (-)) [Compound 4b, (−)-japonicol H]
Reply text: >6.79

Inquiry: Data request, read-out Selective index (CC50/IC50), for CC(C)C(=O)c1c(O)cc(O)c(CC2C(C(C)(C)O)CCC2(C)O)c1O (stereo not shown) [Compound 8a]
Reply text: >7.50

Source: paper PMC9081833
